- ASSAY INFO: activity coefficient (dimensionless); of the first substance listed, at infinite dilution; xn = mol fraction of the nth substance listed
- CONDITION SET: 358.15 K; 101 kPa; Liquid; Chromatography; x1 = 0
MEASURED PROPERTY: activity coefficient
Format: numeric value only, no unit, no commentary.

The following compounds have reported results that may help.
> print(dat)
                                    compound  assay.result
 1  C#CCCC [1-pentyne] + CCCCCCOCn1cc[n+](COCCCCCC)c1.O=S(=O)([N-]S(=O)(=O)C(F)(F)F)C(F)(F)F          1.02
 2  CCCOCCC [dipropyl ether] + CCCCCCOCn1cc[n+](COCCCCCC)c1.O=S(=O)([N-]S(=O)(=O)C(F)(F)F)C(F)(F)F           1.5
 3  COC(C)(C)C [2-methoxy-2-methylpropane] + CCCCCCOCn1cc[n+](COCCCCCC)c1.O=S(=O)([N-]S(=O)(=O)C(F)(F)F)C(F)(F)F         0.877
 4  CCCCO [butan-1-ol] + CCCCCCOCn1cc[n+](COCCCCCC)c1.O=S(=O)([N-]S(=O)(=O)C(F)(F)F)C(F)(F)F         0.877
 5  C=CCCCCCC [oct-1-ene] + CCCCCCOCn1cc[n+](COCCCCCC)c1.O=S(=O)([N-]S(=O)(=O)C(F)(F)F)C(F)(F)F          2.87
 6  CCCCCCCCC [nonane] + CCCCCCOCn1cc[n+](C)c1.O=S(=O)([N-]S(=O)(=O)C(F)(F)F)C(F)(F)F          12.4
 7  C1CCCCCC1 [cycloheptane] + CCCCCCOCn1cc[n+](C)c1.O=S(=O)([N-]S(=O)(=O)C(F)(F)F)C(F)(F)F          4.79
 8  CCc1ccccc1 [ethylbenzene] + CCCCCCOCn1cc[n+](C)c1.O=S(=O)([N-]S(=O)(=O)C(F)(F)F)C(F)(F)F           1.5
 9  COC(C)(C)C [2-methoxy-2-methylpropane] + CCCCCCOCn1cc[n+](C)c1.O=S(=O)([N-]S(=O)(=O)C(F)(F)F)C(F)(F)F          1.44
10  CCCCCCC [heptane] + CCCCCCOCn1cc[n+](COCCCCCC)c1.O=S(=O)([N-]S(=O)(=O)C(F)(F)F)C(F)(F)F          3.27

Briefly, activity coefficient measured for CCCCC [pentane] + CCCCCCOCn1cc[n+](COCCCCCC)c1.O=S(=O)([N-]S(=O)(=O)C(F)(F)F)C(F)(F)F : 2.38

Form: compound = C#CCCCCC [1-heptyne] + CCCCCCOCn1cc[n+](COCCCCCC)c1.O=S(=O)([N-]S(=O)(=O)C(F)(F)F)C(F)(F)F ; activity coefficient = 1.41

Please fill in: activity coefficient reported for c1ccsc1 [thiophene] + CCCCCCOCn1cc[n+](C)c1.O=S(=O)([N-]S(=O)(=O)C(F)(F)F)C(F)(F)F = 0.747

The compound listed as CO [methanol] + CCCCCCOCn1cc[n+](C)c1.O=S(=O)([N-]S(=O)(=O)C(F)(F)F)C(F)(F)F shows activity coefficient equal to 0.832

For this compound ( CCCCCCCCCC [decane] + CCCCCCOCn1cc[n+](COCCCCCC)c1.O=S(=O)([N-]S(=O)(=O)C(F)(F)F)C(F)(F)F ), measured activity coefficient is 5.65

Short answer for C#CCCC [1-pentyne] + CCCCCCOCn1cc[n+](C)c1.O=S(=O)([N-]S(=O)(=O)C(F)(F)F)C(F)(F)F : activity coefficient was 1.6

// field: activity coefficient; key: C=CCCCC [hex-1-ene] + CCCCCCOCn1cc[n+](C)c1.O=S(=O)([N-]S(=O)(=O)C(F)(F)F)C(F)(F)F ; value = 4.12

Measured activity coefficient of Cc1ccccc1 [toluene] + CCCCCCOCn1cc[n+](COCCCCCC)c1.O=S(=O)([N-]S(=O)(=O)C(F)(F)F)C(F)(F)F : 0.758

Form: compound = CCO [ethanol] + CCCCCCOCn1cc[n+](COCCCCCC)c1.O=S(=O)([N-]S(=O)(=O)C(F)(F)F)C(F)(F)F ; activity coefficient = 0.767

Data origin: the NIST ThermoML archive (doi:10.1016/j.fluid.2009.08.017)
